Target: Neuraminidase (Influenza A virus, UniProt B4URF0)
Sequence (B4URF0 whole entry): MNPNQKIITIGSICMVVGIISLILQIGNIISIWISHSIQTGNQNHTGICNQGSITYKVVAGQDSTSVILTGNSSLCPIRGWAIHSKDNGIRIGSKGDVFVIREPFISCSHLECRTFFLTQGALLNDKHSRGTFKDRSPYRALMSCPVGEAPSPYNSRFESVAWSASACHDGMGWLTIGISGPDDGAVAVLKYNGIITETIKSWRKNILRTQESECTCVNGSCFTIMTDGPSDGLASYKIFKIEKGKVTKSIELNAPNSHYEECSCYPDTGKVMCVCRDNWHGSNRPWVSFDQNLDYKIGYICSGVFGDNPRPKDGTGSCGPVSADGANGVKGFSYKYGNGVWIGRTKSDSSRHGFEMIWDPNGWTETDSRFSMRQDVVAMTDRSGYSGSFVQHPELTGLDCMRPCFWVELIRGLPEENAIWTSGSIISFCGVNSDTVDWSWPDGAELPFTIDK
Test: Inhibition of Influenza A virus A/Hong Kong/8/1968 (H3N2) neuraminidase using MUNANA as substrate preincubated for 30 mins measured after 2 hrs
Each entry below carries its reported pIC50.
The meaning of pIC50 here: minus log10 of the concentration in molar units.

// solved cases for pIC50 follow
{"columns": ["Compound", "pIC50"],
 "data": [
  ["CC(=O)N[C@H]1[C@H]([C@H](O)[C@H](O)CO)OC(SCCCCCCSC2(C(=O)O)C[C@H](NC(=N)N)[C@@H](NC(C)=O)[C@H]([C@H](O)[C@H](O)CO)O2)(C(=O)O)C[C@@H]1NC(=N)N (stereo partly drawn)", 6.60],
  ["CC(=O)N[C@H]1[C@H]([C@H](O)[C@H](O)CO)OC(SCCOCCOCCOCCOCCOCCSC2(C(=O)O)C[C@H](N)[C@@H](NC(C)=O)[C@H]([C@H](O)[C@H](O)CO)O2)(C(=O)O)C[C@@H]1N (stereo partly drawn)", 4.48]
]}

Okay, now this compound:
In: Give a short answer stating reported pIC50 for CC(=O)N[C@H]1[C@H]([C@H](O)[C@H](O)CO)OC(SCCOCCOCCOCCSC2(C(=O)O)C[C@H](N)[C@@H](NC(C)=O)[C@H]([C@H](O)[C@H](O)CO)O2)(C(=O)O)C[C@@H]1N (stereo partly drawn) .
Out: 4.96

---

Target: Neuraminidase (Influenza A virus, UniProt B4URF0)
Test: Inhibition of Influenza A virus H5N1 neuraminidase using MUNANA as substrate preincubated for 30 mins measured after 2 hrs
Reported metric: pIC50
When answering, recall that pIC50 equals minus log10 of the concentration in mol/L, and write that number alone.

Consider the worked cases shown below.
{"columns": ["Compound", "Readout value"],
 "data": [
  ["CC(=O)N[C@H]1[C@H]([C@H](O)[C@H](O)CO)OC(SCCCCCCCCCCCCSC2(C(=O)O)C[C@H](NC(=N)N)[C@@H](NC(C)=O)[C@H]([C@H](O)[C@H](O)CO)O2)(C(=O)O)C[C@@H]1NC(=N)N (stereo not given in full)", 6.14],
  ["CC(=O)N[C@H]1[C@H]([C@H](O)[C@H](O)CO)OC(SCCCCCCCCCCCCSC2(C(=O)O)C[C@H](N)[C@@H](NC(C)=O)[C@H]([C@H](O)[C@H](O)CO)O2)(C(=O)O)C[C@@H]1N (stereo not given in full)", 4.51],
  ["CC(=O)N[C@H]1[C@H]([C@H](O)[C@H](O)CO)OC(SCCOCCOCCOCCSC2(C(=O)O)C[C@H](N)[C@@H](NC(C)=O)[C@H]([C@H](O)[C@H](O)CO)O2)(C(=O)O)C[C@@H]1N (stereo not given in full)", 4.55],
  ["CC(=O)N[C@H]1[C@H]([C@H](O)[C@H](O)CO)OC(SCCOCCOCCOCCOCCOCCSC2(C(=O)O)C[C@H](N)[C@@H](NC(C)=O)[C@H]([C@H](O)[C@H](O)CO)O2)(C(=O)O)C[C@@H]1N (stereo not given in full)", 4.07]
]}

In: Report measured pIC50; entry is CC(=O)N[C@H]1[C@H]([C@H](O)[C@H](O)CO)OC(SCCOCCOCCOCCOCCSC2(C(=O)O)C[C@H](N)[C@@H](NC(C)=O)[C@H]([C@H](O)[C@H](O)CO)O2)(C(=O)O)C[C@@H]1N (stereo not given in full)
Out: 4.19

---

Quick list: pIC50 per entry.
Target: Neuraminidase (Influenza A virus)
Assay: Inhibition of Influenza A virus A/California/07/2009 (H1N1) neuraminidase using MUNANA as substrate preincubated for 30 mins measured after 2 hrs
Scale for pIC50: -log10 of concentration given in mol/L; no unit attached.

Sample records with pIC50:
{"columns": ["Compound", "pIC50"],
 "data": [
  ["CC(=O)N[C@H]1[C@H]([C@H](O)[C@H](O)CO)OC(SCCOCCOCCOCCSC2(C(=O)O)C[C@H](N)[C@@H](NC(C)=O)[C@H]([C@H](O)[C@H](O)CO)O2)(C(=O)O)C[C@@H]1N (stereo partly specified)", 5.01],
  ["CC(=O)N[C@H]1[C@H]([C@H](O)[C@H](O)CO)OC(SCCCCCCSC2(C(=O)O)C[C@H](NC(=N)N)[C@@H](NC(C)=O)[C@H]([C@H](O)[C@H](O)CO)O2)(C(=O)O)C[C@@H]1NC(=N)N (stereo partly specified)", 6.59],
  ["CC(=O)N[C@H]1[C@H]([C@H](O)[C@H](O)CO)OC(SCCOCCOCCOCCOCCSC2(C(=O)O)C[C@H](NC(=N)N)[C@@H](NC(C)=O)[C@H]([C@H](O)[C@H](O)CO)O2)(C(=O)O)C[C@@H]1NC(=N)N (stereo partly specified)", 5.92]
]}

In: Give pIC50 for CC(=O)N[C@H]1[C@H]([C@H](O)[C@H](O)CO)OC(SCCCCCCCCCCCCSC2(C(=O)O)C[C@H](N)[C@@H](NC(C)=O)[C@H]([C@H](O)[C@H](O)CO)O2)(C(=O)O)C[C@@H]1N (stereo partly specified)
Out: 4.96

In: Respond only with pIC50 recorded for CC(=O)N[C@H]1[C@H]([C@H](O)[C@H](O)CO)OC(SCCOCCOCCOCCSC2(C(=O)O)C[C@H](NC(=N)N)[C@@H](NC(C)=O)[C@H]([C@H](O)[C@H](O)CO)O2)(C(=O)O)C[C@@H]1NC(=N)N (stereo partly specified)
Out: 5.62

In: Could you please provide reported pIC50 for CC(=O)N[C@H]1[C@H]([C@H](O)[C@H](O)CO)OC(SCCOCCOCCOCCOCCOCCSC2(C(=O)O)C[C@H](N)[C@@H](NC(C)=O)[C@H]([C@H](O)[C@H](O)CO)O2)(C(=O)O)C[C@@H]1N (stereo partly specified) ? Thanks!
Out: 4.35

In: For the compound CC(=O)N[C@H]1[C@H]([C@H](O)[C@H](O)CO)OC(SCCCCCCCCCCCCSC2(C(=O)O)C[C@H](NC(=N)N)[C@@H](NC(C)=O)[C@H]([C@H](O)[C@H](O)CO)O2)(C(=O)O)C[C@@H]1NC(=N)N (stereo partly specified) , give its measured pIC50 value.
Out: 6.10

In: Quickly give me recorded pIC50 for CC(=O)N[C@H]1[C@H]([C@H](O)[C@H](O)CO)OC(SCCCCCCS)(C(=O)O)C[C@@H]1N (stereo partly specified)
Out: 4.25

---

Target: Neuraminidase (Influenza A virus, UniProt B4URF0)
Experiment: Inhibition of Influenza A virus H5N1 neuraminidase using MUNANA as substrate preincubated for 30 mins measured after 2 hrs
Reported metric: IC50 (µM)
Write the value in µM as a bare number.

Consider the worked cases shown below.
{"columns": ["Molecule", "Readout value"],
 "data": [
  ["CC(=O)N[C@H]1[C@H]([C@H](O)[C@H](O)CO)OC(SCCCCCCSC2(C(=O)O)C[C@H](N)[C@@H](NC(C)=O)[C@H]([C@H](O)[C@H](O)CO)O2)(C(=O)O)C[C@@H]1N (stereo partly specified)", 20],
  ["CC(=O)N[C@H]1[C@H]([C@H](O)[C@H](O)CO)OC(SCCCCCCSC2(C(=O)O)C[C@H](NC(=N)N)[C@@H](NC(C)=O)[C@H]([C@H](O)[C@H](O)CO)O2)(C(=O)O)C[C@@H]1NC(=N)N (stereo partly specified)", 0.2],
  ["CC(=O)N[C@H]1[C@H]([C@H](O)[C@H](O)CO)OC(SCCCCCCS)(C(=O)O)C[C@@H]1NC(=N)N (stereo partly specified)", 0.1],
  ["CC(=O)N[C@H]1[C@H]([C@H](O)[C@H](O)CO)OC(SCCOCCOCCOCCSC2(C(=O)O)C[C@H](NC(=N)N)[C@@H](NC(C)=O)[C@H]([C@H](O)[C@H](O)CO)O2)(C(=O)O)C[C@@H]1NC(=N)N (stereo partly specified)", 2.5],
  ["CC(=O)N[C@H]1[C@H]([C@H](O)[C@H](O)CO)OC(SCCOCCOCCOCCOCCSC2(C(=O)O)C[C@H](NC(=N)N)[C@@H](NC(C)=O)[C@H]([C@H](O)[C@H](O)CO)O2)(C(=O)O)C[C@@H]1NC(=N)N (stereo partly specified)", 1.1]
]}

Now for the molecule whose IC50 we want.
In: Provide Neuraminidase (Influenza A virus, UniProt B4URF0) IC50 reading for CC(=O)N[C@H]1[C@H]([C@H](O)[C@H](O)CO)OC(SCCCCCCS)(C(=O)O)C[C@@H]1N (stereo partly specified) .
Out: 127

---

Target: Neuraminidase (Influenza A virus)
Test: Inhibition of Influenza A virus H3N2 neuraminidase using MUNANA as substrate preincubated for 30 mins measured after 2 hrs
Reported metric: pIC50
// pIC50 is dimensionless: -log10 of concentration (M)

Reference set, count: 3
{"columns": ["Compound", "pIC50"],
 "data": [
  ["CC(=O)N[C@H]1[C@H]([C@H](O)[C@H](O)CO)OC(SCCOCCOCCOCCOCCSC2(C(=O)O)C[C@H](NC(=N)N)[C@@H](NC(C)=O)[C@H]([C@H](O)[C@H](O)CO)O2)(C(=O)O)C[C@@H]1NC(=N)N (stereo partly specified)", 5.00],
  ["CC(=O)N[C@H]1[C@H]([C@H](O)[C@H](O)CO)OC(SCCOCCOCCOCCSC2(C(=O)O)C[C@H](NC(=N)N)[C@@H](NC(C)=O)[C@H]([C@H](O)[C@H](O)CO)O2)(C(=O)O)C[C@@H]1NC(=N)N (stereo partly specified)", 5.00],
  ["CC(=O)N[C@H]1[C@H]([C@H](O)[C@H](O)CO)OC(SCCCCCCS)(C(=O)O)C[C@@H]1NC(=N)N (stereo partly specified)", 6.00]
]}

In: Kindly indicate its recorded pIC50. Item: CC(=O)N[C@H]1[C@H]([C@H](O)[C@H](O)CO)OC(SCCCCCCSC2(C(=O)O)C[C@H](N)[C@@H](NC(C)=O)[C@H]([C@H](O)[C@H](O)CO)O2)(C(=O)O)C[C@@H]1N (stereo partly specified)
Out: 4.49

In: Give pIC50 for CC(=O)N[C@H]1[C@H]([C@H](O)[C@H](O)CO)OC(SCCCCCCCCCCCCSC2(C(=O)O)C[C@H](N)[C@@H](NC(C)=O)[C@H]([C@H](O)[C@H](O)CO)O2)(C(=O)O)C[C@@H]1N (stereo partly specified)
Out: 4.40

In: Return value of pIC50 for input CC(=O)N[C@H]1[C@H]([C@H](O)[C@H](O)CO)OC(SCCOCCOCCOCCOCCOCCSC2(C(=O)O)C[C@H](N)[C@@H](NC(C)=O)[C@H]([C@H](O)[C@H](O)CO)O2)(C(=O)O)C[C@@H]1N (stereo partly specified) , no commentary.
Out: 3.67
